Assay read-out Ki on Tyrosine-protein kinase JAK2 (Homo sapiens, UniProt O60674); records merged from the literature.

{"compound": "N#Cc1cccc(F)c1-c1cc(-n2ccc([C@@H]3CCCO3)n2)c2c(n1)CNC2=O", "target.entity": "Tyrosine-protein kinase JAK2 (Homo sapiens, UniProt O60674)", "Ki": "0.1 to 1 µM"}
{"compound": "N#Cc1cccc(F)c1-c1cc(-n2ccc(N3CCC[C@@](O)(C(F)(F)F)C3)n2)c2c(n1)CNC2=O", "target.entity": "Tyrosine-protein kinase JAK2 (Homo sapiens, UniProt O60674)", "Ki": "0.01 to 0.1 µM"}
{"compound": "N#Cc1cccc(F)c1-c1cc(-c2ccn(C(=O)N3CCOCC3)n2)c2c(n1)CNC2=O", "target.entity": "Tyrosine-protein kinase JAK2 (Homo sapiens, UniProt O60674)", "Ki": "0.1 to 1 µM"}
{"compound": "Cc1ccccc1CNc1cc(-c2c(N)nn3cccnc23)ncn1", "target.entity": "Tyrosine-protein kinase JAK2 (Homo sapiens, UniProt O60674)", "Ki": "< 0.01 µM"}
{"compound": "CS(=O)(=O)N[C@H]1CCN(c2ccn(-c3cc(-c4c(F)cccc4C#N)nc4c3C(=O)NC4)n2)C1", "target.entity": "Tyrosine-protein kinase JAK2 (Homo sapiens, UniProt O60674)", "Ki": "0.0001 to 0.01 µM"}
{"compound": "COC(=O)c1cc(C2Nc3ccccc3-c3ccnc4[nH]cc2c34)ccc1O (stereo not drawn)", "target.entity": "Tyrosine-protein kinase JAK2 (Homo sapiens, UniProt O60674)", "Ki": "> 2.5 µM"}
{"compound": "COC(=O)N1CCC(C(=O)Nc2nc(-c3ncnc4[nH]ccc34)cs2)CC1", "target.entity": "Tyrosine-protein kinase JAK2 (Homo sapiens, UniProt O60674)", "Ki": "< 0.1 µM"}
{"compound": "O=C1NCc2nc(-c3c(F)cccc3F)cc(Nc3ccc4c(c3)OCO4)c21", "target.entity": "Tyrosine-protein kinase JAK2 (Homo sapiens, UniProt O60674)", "Ki": "0.1 to 1 µM"}
{"compound": "CC(O)CNC(=O)C(C)n1cc(-c2ncnc3[nH]ccc23)cn1 (stereo not drawn)", "target.entity": "Tyrosine-protein kinase JAK2 (Homo sapiens, UniProt O60674)", "Ki": "0.5 to 5 µM"}
{"compound": "Cn1cc(-c2ncnc3[nH]ccc23)cc1C(=O)N(CCC#N)CC1CC1", "target.entity": "Tyrosine-protein kinase JAK2 (Homo sapiens, UniProt O60674)", "Ki": "< 0.1 µM"}
{"compound": "O=C1[C@H]2CCCC[C@@H]2C(=O)N1c1nc(-c2ncnc3[nH]ccc23)cs1", "target.entity": "Tyrosine-protein kinase JAK2 (Homo sapiens, UniProt O60674)", "Ki": "0.1 to 0.5 µM"}
{"compound": "CCC(CC)(Nc1ccnc(-c2c[nH]c3ncncc23)n1)C(=O)NCC(F)(F)F", "target.entity": "Tyrosine-protein kinase JAK2 (Homo sapiens, UniProt O60674)", "Ki": "< 0.5 µM"}
{"compound": "N#Cc1cccc(F)c1-c1cc(-n2ccc(N3CCC(F)C(O)C3)n2)c2c(n1)CNC2=O (stereo not drawn)", "target.entity": "Tyrosine-protein kinase JAK2 (Homo sapiens, UniProt O60674)", "Ki": "0.0001 to 0.01 µM"}
{"compound": "Oc1ccc(C2Nc3ccccc3-c3ccnc4[nH]cc2c34)cc1OC(F)(F)F (stereo not drawn)", "target.entity": "Tyrosine-protein kinase JAK2 (Homo sapiens, UniProt O60674)", "Ki": "0.25 to 2.5 µM"}
{"compound": "CC(C)(Nc1nc(-c2c[nH]c3ncncc23)ncc1F)C(=O)NCCF", "target.entity": "Tyrosine-protein kinase JAK2 (Homo sapiens, UniProt O60674)", "Ki": "< 0.5 µM"}
{"compound": "CC(C)OCCOc1nc(N[C@@H](C)c2ccc(F)cc2F)cc(-c2cnn3cccnc23)n1", "target.entity": "Tyrosine-protein kinase JAK2 (Homo sapiens, UniProt O60674)", "Ki": "< 0.01 µM"}
{"compound": "Cc1c[nH]c2ncnc(-c3c[nH]c(C(=O)N(CCC(F)(F)F)CC4CC4)c3)c12", "target.entity": "Tyrosine-protein kinase JAK2 (Homo sapiens, UniProt O60674)", "Ki": "< 0.1 µM"}
{"compound": "Cc1ccc(CNc2cc(-c3c(N)nn4cccnc34)ncn2)o1", "target.entity": "Tyrosine-protein kinase JAK2 (Homo sapiens, UniProt O60674)", "Ki": "0.01 to 0.1 µM"}
{"compound": "N#Cc1cccc(F)c1-c1cc(-n2cc(F)c(N3CCC(O)C3)n2)c2c(n1)CNC2=O (stereo not drawn)", "target.entity": "Tyrosine-protein kinase JAK2 (Homo sapiens, UniProt O60674)", "Ki": "0.01 to 0.1 µM"}
{"compound": "C1=C(c2ncnc3[nH]ccc23)CCCCC1", "target.entity": "Tyrosine-protein kinase JAK2 (Homo sapiens, UniProt O60674)", "Ki": "< 0.5 µM"}
{"compound": "O=C(Nc1nc(-c2ncnc3[nH]ccc23)cs1)C1CC=CC1", "target.entity": "Tyrosine-protein kinase JAK2 (Homo sapiens, UniProt O60674)", "Ki": "< 0.1 µM"}
{"compound": "N#Cc1cccc(F)c1-c1cc(-n2ccc(N3CCOC[C@H](O)C3)n2)c2c(n1)CNC2=O", "target.entity": "Tyrosine-protein kinase JAK2 (Homo sapiens, UniProt O60674)", "Ki": "0.01 to 0.1 µM"}
{"compound": "Clc1ccccc1C1Nc2ccccc2-c2ccnc3[nH]cc1c23 (stereo not drawn)", "target.entity": "Tyrosine-protein kinase JAK2 (Homo sapiens, UniProt O60674)", "Ki": "0.25 to 2.5 µM"}
{"compound": "[2H]C1([2H])N(c2ccn(-c3cc(-c4c(F)cccc4C#N)nc4c3C(=O)NC4)n2)C([2H])([2H])C([2H])([2H])C([2H])(O)C1([2H])[2H]", "target.entity": "Tyrosine-protein kinase JAK2 (Homo sapiens, UniProt O60674)", "Ki": "0.01 to 0.1 µM"}
{"compound": "N#Cc1cccc(F)c1-c1cc(-n2ccc(N3CC[C@@H](O)C3)n2)c2c(n1)CNC2=O", "target.entity": "Tyrosine-protein kinase JAK2 (Homo sapiens, UniProt O60674)", "Ki": "0.01 to 0.1 µM"}
{"compound": "[2H]C([2H])([2H])O[C@H]1CN(c2ccn(-c3cc(-c4c(F)cccc4C#N)nc4c3C(=O)NC4)n2)C[C@H]1O", "target.entity": "Tyrosine-protein kinase JAK2 (Homo sapiens, UniProt O60674)", "Ki": "0.01 to 0.1 µM"}
{"compound": "CC[C@](C)(Nc1ccnc(-c2c[nH]c3ncncc23)n1)C(=O)NCC(F)(F)F", "target.entity": "Tyrosine-protein kinase JAK2 (Homo sapiens, UniProt O60674)", "Ki": "< 0.5 µM"}
{"compound": "O=C1NCc2nc(-c3c(F)cccc3F)cc(Nc3ccc(C(=O)N4CCC5(CCCCO5)CC4)cc3)c21", "target.entity": "Tyrosine-protein kinase JAK2 (Homo sapiens, UniProt O60674)", "Ki": "0.01 to 0.1 µM"}
{"compound": "Cc1ccc(C2Nc3ccccc3-c3ccnc4[nH]cc2c34)cc1 (stereo not drawn)", "target.entity": "Tyrosine-protein kinase JAK2 (Homo sapiens, UniProt O60674)", "Ki": "0.25 to 2.5 µM"}
{"compound": "Cc1cc(C2Nc3ccccc3-c3ncnc4[nH]cc2c34)ccc1O (stereo not drawn)", "target.entity": "Tyrosine-protein kinase JAK2 (Homo sapiens, UniProt O60674)", "Ki": "< 0.25 µM"}
{"compound": "C[C@H](Nc1cc(-c2cnn3cccnc23)nc(OCC(C)(C)N(C)C)n1)c1ccc(F)cc1F", "target.entity": "Tyrosine-protein kinase JAK2 (Homo sapiens, UniProt O60674)", "Ki": "< 0.01 µM"}
{"compound": "O=C(Nc1nc(-c2ncnc3[nH]ccc23)cs1)C1CCOCC1", "target.entity": "Tyrosine-protein kinase JAK2 (Homo sapiens, UniProt O60674)", "Ki": "< 0.1 µM"}
{"compound": "CN1CCN([C@H]2CCCN(c3ccn(-c4cc(-c5c(F)cccc5C#N)nc5c4C(=O)NC5)n3)C2)CC1", "target.entity": "Tyrosine-protein kinase JAK2 (Homo sapiens, UniProt O60674)", "Ki": "0.01 to 0.1 µM"}
